The reported numbers originate from patent US20240327502A1.

Substrate: F protein of hMPV A virus (human metapneumovirus subtype A)
Assay: cell-based or functional assay
Readings of PRNT IC50 for the listed binders
measuredEndpoint: PRNT IC50 (µg/mL)

INSERT INTO results (binder, measuredendpoint, relationsign, reported) VALUES
  ('M6E10 (antibody, V domains shown) VH: QVQLVQSGAEVKKPGSSVKVSCNASGGIFDTNVINWVRQAPGQGLEWMGGIIPPFGTALYAHQFQGRLTLTVDESTNTAYMDLSSLRSDDTAVYFCARDRTVIKYADGMDVWGQGTTVTVSS VL: DIQMTQSPSSLSASVGDKVAITCRASQTISPYLNWYQQKPGKAPNLLIYGTNKLQSGVPLRFSGSGSGTDFTLTINGLQPEDFATYFCQQSHTTPLTFGGGTKVEIKR', 'PRNT IC50', '=', 0.0237),
  ('M4B01 (antibody, V domains shown) VH: EVQLLESGGGLVQPGGSLRLSCAASGFNFNTYAMSWVRQAPGKGLKWISTISGSGGVKYYADSVKGRFTISRDNSGSILYLQMNRLRADDTAVYYCAKSQNPQLVFFDSFDMWGQGSMVTVSS VL: QSVLTQAPSASAAPGQKVTISCSGSTSNIGNSYVSWYQQVPGTAPKLLIYEDNQRPSGIPDRFSGSKSGTSATLGITGLQTGDEADYYCGTWDNSLTEVVFGGGTKLTVL', 'PRNT IC50', '=', 0.0371),
  ('M4A12 (antibody, V domains shown) VH: QLQESGSGPGLVKPSETLSLICNASGDSVTRNAYYWGWLRQPPGKGLEWIGIMYYSGSTFYNPSLKSRLTISVDTSKNQFSLKLRSVTAADTATYYCGEATLTTYDAFDVWGHGTMVTVSS VL: QSVLTQPPSVSAAPGQRVTISCSGGNSNIGKNYVSWYQQVPGTAPKLLIYENNKRPSGIPDRFSGSKSGTSATLGITGLQTGDEADYYCGAWDSSLNGVLFGGGTRLTVL', 'PRNT IC50', '>', 10),
  ('M2D10 (antibody, V domains shown) VH: QVQLVQSGAEVKKPGASVRISCKPSGRAFLTYDINWVRQAPGQGLEWMAGMNPGSGNAAYAPKFQGRLTMIRNTSISTDYLELSSLTSEDTAVYYCARGEVSMRWRWLDPWGQGSLVTVTS VL: DIQMTQSPSSLSASVGDRVTITCRASQTISNFLNWYQQKPGRAPKVLIYAALNLQSGVPSRFRGSGSGTDFTLTINNLQPEDFAIYYCQQSYITPWTFGQGTKVEIK', 'PRNT IC50', '=', 0.759);
